From: PubChem BioAssay (EPA / NIEHS)

Experiment: BSK_4H_Eotaxin3: BioMAP Diversity Plus: 4H Assay for Eotaxin 3 Biomarker Activity (AID 2283000)
Settings: primary human endothelial cells (HUVEC); actives raise or lower the signal
Calls of active or inactive are those of the source. How the source made its calls: active means hit-call score of the fitted dose curve at least 0.9, where 1 is the maximum; inactive means score below 0.9.
quantity: AC50

{"compound": "COc1ccc(CO)cc1", "AC50": "inactive"}
{"compound": "CNC(=O)Oc1cc(C)c(SC)c(C)c1", "AC50": "20 µM (active)"}
{"compound": "COCC(=O)N(c1c(C)cccc1C)N1CCOC1=O", "AC50": "inactive"}
{"compound": "CC(C)(C)C(=O)CCl", "AC50": "20 µM (active)"}
{"compound": "O=[N+]([O-])c1ccc(Cl)cc1", "AC50": "inactive"}

Please supply the value of reported AC50 for the item "Oc1cc(Cl)ccc1Cl"
inactive

// Input: "CC(=O)/C=C/c1ccccc1" . Output its AC50 only.
inactive

Supply AC50 value. Item: "COC(C)(C)CCC[C@H](C)C/C=C/C(C)=C/C(=O)OC(C)C"
29.4 µM (active)

Name the recorded AC50 of the item "CCCOC(=O)c1ccccc1C(=O)OCCC" in your answer.
inactive

Look up AC50 of "O=S(=O)(c1ccccc1)c1ccccc1" and report it.
inactive

----------
Molecular target: Bile acid receptor (Homo sapiens) (UniProt Q96RI1)
Sequence (Q96RI1 whole entry, looked up): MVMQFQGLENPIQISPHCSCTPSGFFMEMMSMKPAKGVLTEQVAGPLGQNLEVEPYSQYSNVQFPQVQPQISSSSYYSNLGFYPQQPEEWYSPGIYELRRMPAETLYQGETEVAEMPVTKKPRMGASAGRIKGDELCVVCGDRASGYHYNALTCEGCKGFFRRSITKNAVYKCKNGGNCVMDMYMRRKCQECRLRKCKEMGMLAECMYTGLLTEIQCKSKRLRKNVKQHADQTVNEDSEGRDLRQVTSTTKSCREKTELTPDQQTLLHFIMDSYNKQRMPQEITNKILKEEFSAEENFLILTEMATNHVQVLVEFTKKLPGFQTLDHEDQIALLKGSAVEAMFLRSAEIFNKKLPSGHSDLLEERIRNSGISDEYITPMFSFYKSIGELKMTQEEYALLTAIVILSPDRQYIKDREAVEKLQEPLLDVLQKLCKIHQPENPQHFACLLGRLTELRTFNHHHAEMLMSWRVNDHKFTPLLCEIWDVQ
Assay: OT_FXR_FXRSRC1_1440: Odyssey Thera (OT) 24-hour HEK293T Protein-Complementation Assay for Farnesoid X receptor/SRC-1 Co-activator (AID 2283384)
Results filed as inconclusive are left out. Active and inactive are the calls of the source. The calls were made as follows: active = hit-call score of the fitted dose curve at least 0.9, where 1 is the maximum; inconclusive = response in the unintended direction; inactive = score below 0.9.
The reply should be one of these categories: active, inactive

Use these answered entries as a reference point.
{"molecule": "CC(C)(O)C#N", "assigned-category": "inactive"}
{"molecule": "O=C(NC(=O)c1c(F)cccc1F)Nc1ccc(Oc2ccc(C(F)(F)F)cc2Cl)cc1F", "assigned-category": "active"}
{"molecule": "O=C1Nc2ccc(Cl)cc2C(c2ccccc2)=NC1O (configuration not stated)", "assigned-category": "inactive"}
{"molecule": "CCOP(=O)(OCC)Oc1ccc([N+](=O)[O-])cc1", "assigned-category": "inactive"}
{"molecule": "O=P(O)(Oc1ccccc1)Oc1ccccc1", "assigned-category": "inactive"}

Field: outcome | Entry: O=C(NCNC(=O)NC1C(=O)NC(=O)N1CO)NC1C(=O)NC(=O)N1CO (configuration not stated)
inactive

What call does the record list for "Nc1cc(Cl)cc(Cl)c1" ?
inactive

----------
Read-out: Vascular cell adhesion molecule 1 (VCAM1), VCAM1 (gene 7412)
Assay: BSK_CASM3C_VCAM1: BioMAP Diversity Plus: CASM3C Assay for Vascular cell adhesion molecule 1 (VCAM1) Biomarker Activity (AID 2283055);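 further: VCAM-1 protein level quantified by ELISA on the cells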
Details: primary human coronary artery smooth muscle cells; actives raise or lower the signal
The source made the active and inactive calls. Rule for the calls: active = hit-call score of the fitted dose curve at least 0.9, where 1 is the maximum; inactive = score below 0.9.
I would appreciate it if you answered using one of these outcomes: Yes for active, No for inactive

{"compound": "CNC(=O)Oc1cc(C)c(SC)c(C)c1", "assigned-category": "Yes"}
{"compound": "CC(C)(C)C(O)C(Oc1ccc(-c2ccccc2)cc1)n1cncn1 (centres undefined)", "assigned-category": "Yes"}
{"compound": "O=c1[nH]c(Cl)c(Cl)cc1Cl", "assigned-category": "No"}
{"compound": "CC(=O)/C=C/c1ccccc1", "assigned-category": "No"}
{"compound": "O=P1(NCCCl)OCCCN1CCCl (centres undefined)", "assigned-category": "No"}

Now consider a different compound.
Please let me know the test result on file for "CC(C)CCCCCCCOP(=O)(Oc1ccccc1)Oc1ccccc1" .
No
